- System Name: T1, human IL-17A dimer (human, UniProt Q16552 24-155)
- T1 construct: also called hIL17-A
- T1 sequence (looked up): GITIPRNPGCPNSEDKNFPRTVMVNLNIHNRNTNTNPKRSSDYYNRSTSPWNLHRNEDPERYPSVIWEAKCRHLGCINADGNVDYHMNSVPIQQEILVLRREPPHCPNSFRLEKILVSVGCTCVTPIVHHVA
- Measurement Protocol: FP competition, competitor: tracer BCY2315; Ki Mean column, n=2
*1 amine or outer side, *2 acyl side, *3 side chain or, on linkers, in order; H or OH if unused. Bridges are numbered along the chain shown (N, C = ends). Where no end group is shown, it is not given here. TBMB = c1c(C[*:1])cc(C[*:3])cc1C[*:2]
Quantity Name: Ki (nM)
Expressed in nM, but write only the number.

Recorded Ki (binder CYEDELCEFLALC (linker 1-7-13 via TBMB, Bicyclic peptide) [BCY2249] ): 65
